# target_or_test_system: Carbonic anhydrase 1 (Homo sapiens, UniProt P00915)
# Sequence (P00915 whole entry): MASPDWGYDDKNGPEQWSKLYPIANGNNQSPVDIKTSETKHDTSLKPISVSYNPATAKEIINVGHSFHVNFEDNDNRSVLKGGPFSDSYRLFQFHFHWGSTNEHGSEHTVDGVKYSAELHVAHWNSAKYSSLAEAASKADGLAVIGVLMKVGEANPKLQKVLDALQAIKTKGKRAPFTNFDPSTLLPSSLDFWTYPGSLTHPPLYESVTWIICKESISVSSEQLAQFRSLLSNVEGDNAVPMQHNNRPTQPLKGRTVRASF
pKi: −log10 of the molar value.
Use 6 as the dividing line for pKi, with the line itself on the y side and lower values as n.

Reported pKi at or above 6? "NS(=O)(=O)c1nnc(NC(=O)c2nn(-c3ccc(I)cc3)c(-c3ccccc3)c2C(=O)c2ccccc2)s1"
y

Reported pKi at or above 6? "CCOC(=O)/C(=N/Nc1ccc(-n2nc(C(=O)Nc3nnc(S(N)(=O)=O)s3)c(C(=O)c3ccccc3)c2-c2ccccc2)cc1)C(=O)c1ccccc1"
n

Reported pKi at or above 6? "CC(=O)Cn1c(C)cc2cc(-n3nc(C(=O)Nc4nnc(S(N)(=O)=O)s4)c(C(=O)c4ccccc4)c3-c3ccccc3)ccc21"
n

Reported pKi at or above 6? "CC(=O)/C(=N\Nc1ccc(-n2nc(C(=O)Nc3nnc(S(N)(=O)=O)s3)c(C(=O)c3ccccc3)c2-c2ccccc2)cc1)C(=O)OC(C)(C)C"
y

Reported pKi at or above 6? "CC(=O)C(=NNc1ccc(-n2nc(C(=O)Nc3nnc(S(N)(=O)=O)s3)c(C(=O)c3ccccc3)c2-c2ccccc2)cc1)C(C)=O"
y

----------
# target_or_test_system: Carbonic anhydrase 2 (Homo sapiens, UniProt P00918)
# method_description: Hydratase Activity Assay
attribute_measured: log10 of IC50 (log10 of the value in µM)
Form field - Quantity: IC50; Unit: µM; Scale: log10

Sample answers from the record:
[
  {
    "test_smiles": "CC(=O)C(=NNc1ccc(-n2nc(C(=O)Nc3nnc(S(N)(=O)=O)s3)c(C(=O)c3ccccc3)c2-c2ccccc2)cc1)C(C)=O",
    "log10 of IC50": -1.10
  },
  {
    "test_smiles": "NS(=O)(=O)c1nnc(NC(=O)c2nn(-c3ccc(/N=N/c4c(O)ccc5ccccc45)cc3)c(-c3ccccc3)c2C(=O)c2ccccc2)s1",
    "log10 of IC50": 0.38
  },
  {
    "test_smiles": "CC(=O)Cn1c(C)cc2cc(-n3nc(C(=O)Nc4nnc(S(N)(=O)=O)s4)c(C(=O)c4ccccc4)c3-c3ccccc3)ccc21",
    "log10 of IC50": -0.22
  },
  {
    "test_smiles": "CC(=O)/C(=N\\Nc1ccc(-n2nc(C(=O)Nc3nnc(S(N)(=O)=O)s3)c(C(=O)c3ccccc3)c2-c2ccccc2)cc1)C(=O)OC(C)(C)C",
    "log10 of IC50": -0.70
  },
  {
    "test_smiles": "NS(=O)(=O)c1nnc(NC(=O)c2nn(-c3ccc(NN=C(C(=O)c4ccccc4)C(=O)c4ccccc4)cc3)c(-c3ccccc3)c2C(=O)c2ccccc2)s1",
    "log10 of IC50": 0.00
  }
]

Noted for "NS(=O)(=O)c1nnc(NC(=O)c2nn(-c3ccc(I)cc3)c(-c3ccccc3)c2C(=O)c2ccccc2)s1" : its log10 of IC50 reads -0.74

Noted for "CCOC(=O)/C(=N/Nc1ccc(-n2nc(C(=O)Nc3nnc(S(N)(=O)=O)s3)c(C(=O)c3ccccc3)c2-c2ccccc2)cc1)C(=O)c1ccccc1" : its log10 of IC50 reads 0.11

Noted for "CCOC(=O)/C(=N/Nc1ccc(-n2nc(C(=O)Nc3nnc(S(N)(=O)=O)s3)c(C(=O)c3ccccc3)c2-c2ccccc2)cc1)C(C)=O" : its log10 of IC50 reads -0.10
